Quick reference for viability at 28.5 h, 10 µM among some compounds
assay: in vitro; conditions: human, hela cells, % viability
The reply should be a number in %, with the unit left off.

For orientation, consider the following solved cases.
COCCCNc1nc2c(-c3ccc(Cl)cc3)nnn2c2ccccc12: 96.3
Cc1cc(Oc2ccccc2)nc(Oc2ccc(=O)n(-c3ccccc3)n2)n1: 106
CC(C)(C)Cc1nnc(N)s1: 92.6
Cc1nccn1CC(C)C(=O)NCCN(C)C1CCCCC1 (stereo not shown): 102
O=c1[nH]nc(-c2cccs2)n1-c1ccncc1: 93.2

Task item: Query: viability at 28.5 h, 10 µM; subject: O=C(/C=C/c1ccccc1)Oc1cccc(NC(=O)C2CC(=O)N(c3ccccc3)C2)c1 (stereo not shown)
Reply: 109

Task item: Query: viability at 28.5 h, 10 µM; subject: COc1ccc(CCN2C(=O)CC(N3CCN(c4ccccc4)CC3)C2=O)cc1OC (stereo not shown)
Reply: 106

Task item: Query: viability at 28.5 h, 10 µM; subject: COc1ccc(-c2nc(COC(=O)c3cccnc3N)cs2)cc1OC
Reply: 82.6

Task item: Query: viability at 28.5 h, 10 µM; subject: O=C(c1ccc(C#CC2(O)CCCCC2)cc1)N1CCN(Cc2ccccc2)CC1
Reply: 100

Task item: Query: viability at 28.5 h, 10 µM; subject: Cc1cc(C)nc(NS(=O)(=O)c2ccc(Nc3ccc4nonc4c3[N+](=O)[O-])cc2)n1
Reply: 103

Task item: Query: viability at 28.5 h, 10 µM; subject: N#CCCSc1nnc(-c2cccnc2)n1Cc1ccccc1
Reply: 100

Task item: Query: viability at 28.5 h, 10 µM; subject: CC(=O)N1C[C@@H](N(C)C)[C@H](c2cn(C)c3ccccc23)C1
Reply: 99.5

Task item: Query: viability at 28.5 h, 10 µM; subject: COc1ccc2[nH]c3c(c2c1)CCOC31CCN(CCC(F)=C(F)F)CC1
Reply: 103

====

assay: in vitro; conditions: human, hela cells, % viability
endpoint: viability at 28.5 h, 10 µM (%)
The reply should be a number in %, with the unit left off.

O=C(O)c1cccc(-c2ccc(/C=N/NC(=O)c3sc4ccccc4c3Cl)o2)c1: 91
Cn1c(=O)n(CC(=O)NC2(C)C3CCC(C3)C2(C)C)c2cccnc21 (centres unmarked): 84.9

Task item: Query: viability at 28.5 h, 10 µM; subject: Cn1nccc1C(O)c1cc2n(n1)CCCN(C(=O)Cc1cccs1)C2 (centres unmarked)
Reply: 104

Task item: Query: viability at 28.5 h, 10 µM; subject: NC(=O)[C@H]1C[C@@H](O)[C@H](O)[C@H]2[C@@H]1S/C(=N\c1ccc(Cl)cc1)N2Cc1ccccc1
Reply: 94.9

Task item: Query: viability at 28.5 h, 10 µM; subject: O=C(O)c1cc(C=Cc2ccc(OC(F)F)cc2)nc2ccccc12
Reply: 85.3

====

Quick reference for viability at 28.5 h, 10 µM among some compounds
assay: in vitro; conditions: human, hela cells, % viability
The reply should be a number in %, with the unit left off.

For orientation, consider the following solved cases.
COc1ccc(CN2CCNC(=O)C2CC(=O)O)cc1OC (stereo not drawn): 102
CCOc1ccc(C)cc1S(=O)(=O)NCCc1c(C)[nH]c2c(Cl)cccc12: 86.8
O=C(O)/C=C/C(=O)Nc1ccc(S(=O)(=O)NCc2ccco2)cc1: 106
Cc1ccc(S(=O)(=O)N(CC(O)CN2CCCCC2)c2ccccc2)cc1 (stereo not drawn): 97.7
N#Cc1c(SCC(=O)N2CCc3ccccc3C2)nsc1SCC(=O)N1CCc2ccccc2C1: 93.6

Task item: Query: viability at 28.5 h, 10 µM; subject: O=S(=O)(Nc1nc(-c2ccccc2Cl)cs1)c1sc(Cl)cc1Br
Reply: 103

Task item: Query: viability at 28.5 h, 10 µM; subject: CC(=O)c1c[nH]c(=O)[nH]c1=O
Reply: 115

Task item: Query: viability at 28.5 h, 10 µM; subject: COc1ccccc1C1(NC(=O)CCn2nccc2C)CCCC1
Reply: 89.7

Task item: Query: viability at 28.5 h, 10 µM; subject: COc1ccc(C(=O)Nc2nc(-c3ccc4c(c3)OCCO4)cs2)cc1OC
Reply: 92.5

====

Quick reference for viability at 28.5 h, 10 µM among some molecules
test: in vitro; settings: human, hela cells, % viability
The reply should be a number in %, with the unit left off.

For orientation, consider the following solved cases.
COC(=O)c1cccc(C(=O)Nc2ncc(-c3ccccc3)s2)c1: 89.7
CN(C)CCNCCP(=O)(c1ccccc1)c1ccccc1: 104
CCCn1ncc(C(=O)NC(CC)c2cn3cccnc3n2)c1C (stereo not shown): 92.9
O=C(O)COc1ccc(Br)cn1: 104
O=C(O)c1cccc2c1C(=O)N(Cc1cccs1)C2: 95.3
CCCCCOc1ccc(C2NC(=O)NC2=O)cc1 (stereo not shown): 89

Task item: Query: viability at 28.5 h, 10 µM; subject: CC(Nc1nc(N2CCNCC2)nc2ccccc12)c1ccccc1 (stereo not shown)
Reply: 102

Task item: Query: viability at 28.5 h, 10 µM; subject: CCOC(=O)c1ccccc1NS(=O)(=O)c1ccc(C(F)(F)F)cc1[N+](=O)[O-]
Reply: 96.2

Task item: Query: viability at 28.5 h, 10 µM; subject: COc1ccc(-c2nn(-c3ccccc3)cc2/C=C2/SC(=S)N(Cc3ccccc3)C2=O)c(C)c1
Reply: 93.7

Task item: Query: viability at 28.5 h, 10 µM; subject: CC(C)Nc1nccnc1OCc1ccc(F)cc1
Reply: 113

====

test: in vitro; conditions: human, hela cells, % viability
endpoint: viability at 28.5 h, 10 µM (%)
The reply should be a number in %, with the unit left off.

For orientation, consider the following solved cases.
O=C(CCn1c(-c2ccccc2)c(-c2ccccc2)c2ccccc21)N/N=C/c1ccccc1O: 66.9
Cc1ccc(C2CCC(C(=O)O)C(C(=O)O)C2)cc1C (centres unmarked): 98.2
CC(=O)N(C)Cc1cccc(Nc2ncnc3c2cnn3CCC#N)c1: 88.5
CCNC(=O)N(C)c1c(CC)nc2c(OCC3CCCCC3)cccn12: 108

Task item: Query: viability at 28.5 h, 10 µM; subject: O=C1CCCC2=C1C(c1ccccc1Cl)n1nnnc1N2 (centres unmarked)
Reply: 93

Task item: Query: viability at 28.5 h, 10 µM; subject: O=C1COc2ccccc2C/C=C/CC2(CCN(C(=O)c3cnccn3)CC2)C(=O)NCCN1
Reply: 106

Task item: Query: viability at 28.5 h, 10 µM; subject: COc1cc(/C=N/n2cnnc2)ccc1OS(=O)(=O)c1ccccc1[N+](=O)[O-]
Reply: 89.3

Task item: Query: viability at 28.5 h, 10 µM; subject: O=C(CN1CCN(c2ccccn2)CC1)N1c2ccccc2CCc2ccccc21 [CBK268868G]
Reply: 98.4

Task item: Query: viability at 28.5 h, 10 µM; subject: N#C/N=C(/Nc1cccnc1)Oc1ccccc1
Reply: 87.3

Task item: Query: viability at 28.5 h, 10 µM; subject: CCOC(=O)C1CSCN1C(=O)c1cnn(C(CC)CC)c1C (centres unmarked)
Reply: 106

Task item: Query: viability at 28.5 h, 10 µM; subject: COc1ccc(C(=O)Nc2ccc(OCC(=O)O)cc2)cc1
Reply: 91.4

Task item: Query: viability at 28.5 h, 10 µM; subject: CC1=NN(c2ccc(Cl)c(Cl)c2)C(=O)C1
Reply: 100

Task item: Query: viability at 28.5 h, 10 µM; subject: CCN(CC)C(=O)CCn1c(-c2ccc(C)nc2)cc2cccnc21
Reply: 87.2

====

test: in vitro; details: human, hela cells, % viability
endpoint: viability at 28.5 h, 10 µM (%)
The reply should be a number in %, with the unit left off.

CN(C)CCN(C)c1nc(-c2ccc(F)c(Cl)c2)cn2ccnc12: 95.7
C/C(=N\NC(=O)CCc1c(C)n[nH]c1C)c1ccc(N)cc1: 97.7
O=C(CSc1ccccc1)Nc1cnc(-c2ccc(F)cc2)c(-c2ccco2)n1: 101
Cc1ccc(C(=O)NCc2cccnc2)c(N2CCN(C(=O)c3ccco3)CC2)n1: 83.9

# ---- query compound ----
Task item: Query: viability at 28.5 h, 10 µM; subject: O=[N+]([O-])c1cc(Br)cc(/C=N/Nc2nc3ccccc3[nH]2)c1O
Reply: 89.1

====

Quick reference for viability at 28.5 h, 10 µM among some compounds
assay: in vitro; conditions: human, hela cells, % viability
The reply should be a number in %, with the unit left off.

For orientation, consider the following solved cases.
O=C(c1ncoc1-c1ccc(F)cc1)N1CCN2CCCC2C1 (stereo not shown): 90.1
CCn1cc(CN2CCCN(C(=O)c3cc(Cl)c[nH]3)CC2)cn1: 90.6
CC(C)NC(=O)C1(Cc2ccccc2-c2ccncc2)CCOCC1: 94.1
CS(=O)(=O)c1ccc(CNC(=O)c2ccccc2-n2cccc2)cc1: 94.2
COc1ccc(/C=C(/NC(=O)c2cccc([N+](=O)[O-])c2)C(=O)O)cc1OC: 97.1
CCCNCCc1ccc2c(c1)C(=O)N(Cc1ccc(OC)cc1)C2=O [CBK011826C]: 87.3
CS(=O)(=O)Nc1nccnc1OC1CCN(CC2CCCCC2)CC1: 89.9
Cc1ccc(C(=O)NCCc2ccc(S(N)(=O)=O)cc2)c(N2CCN(C(=O)c3ccco3)CC2)n1: 89
OCc1ccc(-c2nccnc2NCc2cccs2)cc1: 99.1
O=C(Nc1cccc(C(F)(F)F)c1)N[C@H]1[C@H](O)[C@@H](Oc2ccccc2)[C@@H]2OC[C@H]1O2: 106

Task item: Query: viability at 28.5 h, 10 µM; subject: CCCc1cc(=O)[nH]c2nnc(SCC(=O)NC)n12
Reply: 95.3

Task item: Query: viability at 28.5 h, 10 µM; subject: COc1ccc([C@]23CN(C)C[C@H]2CCN(C(=O)c2cccc(Br)c2)C3)cc1OC [CBK075111T]
Reply: 96.7

Task item: Query: viability at 28.5 h, 10 µM; subject: COc1ccc2cnc(C3CCCN(C(=O)C4CC4)C3)cc2c1C (stereo not shown)
Reply: 90.8

Task item: Query: viability at 28.5 h, 10 µM; subject: COc1ccc2c(c1)C1(CC(=O)N(CCOc3ccccc3)C1=O)C(=O)N2C (stereo not shown)
Reply: 95.2

Task item: Query: viability at 28.5 h, 10 µM; subject: CC(NCc1ccc(S(N)(=O)=O)cc1)=C1C(=O)c2ccccc2C1=O
Reply: 87

Task item: Query: viability at 28.5 h, 10 µM; subject: O=C(NC1=NCCS1)c1cc2ccccc2o1
Reply: 80.8

Task item: Query: viability at 28.5 h, 10 µM; subject: CC1CCC2(CC1)N=C(N)Nc1nc3ccccc3n12 (stereo not shown)
Reply: 88.4

Task item: Query: viability at 28.5 h, 10 µM; subject: COc1ccccc1C(=O)Nc1ccc([C@@H](O)[C@H]2COCC(=O)N2)cc1
Reply: 97.3

Task item: Query: viability at 28.5 h, 10 µM; subject: O=C(NCc1ccc(Cl)c(Cl)c1)C1(c2ccccc2)CCCC1
Reply: 92.8

Where do these numbers come from? They come from paper PMC12040169.
